- System: SKOV-3 cells
- Run Description: Cytotoxic activity, MTT assay, SKOV-3
- Format: cell-based, human
- Condition Info: Homo sapiens, SK-OV-3, 72 h, read-out: IC50 SKOV-3, MTT, 72 h
Quantity Measured: IC50

Give the reported value of IC50 for this record: O=c1cc(-c2ccccc2)oc2cccc(O)c12 [Molecule M4, 5-hydroxyflavone]
> 50 µM

Further cases:
Give the reported value of IC50 for this record: Cc1ccc(-c2cc(=O)c3cc(O)ccc3o2)cc1 [Molecule M17, 6-hydroxy-4′-methylflavone]
43.8 µM

Give the reported value of IC50 for this record: O=c1cc(-c2ccccc2)oc2ccc(O)cc12 [Molecule M3, 6-hydroxyflavone]
> 100 µM

Give the reported value of IC50 for this record: COc1cc(O)c2c(=O)cc(-c3ccc(O)cc3)oc2c1 [Molecule M12, 4′,5-dihydroxy-7-methoxyflavone]
44.7 µM

Give the reported value of IC50 for this record: CC1OC(Oc2c(-c3cc(O)c(O)c(O)c3)oc3cc(O)cc(O)c3c2=O)C(O)C(O)C1O (centres unmarked) [Molecule M20, myricitrin dihydrate]
> 50 µM

Give the reported value of IC50 for this record: O=c1cc(-c2cccc(O)c2)oc2cc(O)ccc12 [Molecule M13, 7,3′-dihydroxyflavone]
42.1 µM

Give the reported value of IC50 for this record: O=c1cc(-c2cccc(O)c2)oc2ccc3ccccc3c12 [Molecule M9, 3′-hydroxy-b-naphthoflavone]
> 50 µM

Give the reported value of IC50 for this record: O=c1cc(-c2cc(O)cc(O)c2)oc2ccccc12 [Molecule M8, 3′,5′-dihydroxyflavone]
> 50 µM
